Examples of compounds with documented IC50 follow.
- PROTOCOL NOTES: Cytotoxicity against human GLC82 cells after 48 hrs by MTT assay
- Format: functional, cell-based
- CONDITION INFO: GLC82, 48 h

Answered cases to consult:
[
  {
    "SMILES INPUT": "Cc1ccc(-c2cc(Cl)c3ccccc3n2)cc1",
    "PROPERTY": "IC50",
    "RESULT": "> 100 µM"
  },
  {
    "SMILES INPUT": "COc1ccc(-c2cc(NCCCO)c3ccccc3n2)cc1",
    "PROPERTY": "IC50",
    "RESULT": "40.9 µM"
  },
  {
    "SMILES INPUT": "COc1cc(-c2ccc(C)cc2)nc2ccccc12",
    "PROPERTY": "IC50",
    "RESULT": "> 100 µM"
  }
]

// switching to the query compound
IC50 in this record for COc1cc(-c2ccc(COC(=O)c3cccs3)cc2)nc2ccccc12 : > 100 µM

====

Below: a set of entries, each annotated with reported IC50.
- System: HUVEC
- PROTOCOL NOTES: Cytotoxicity against HUVEC cells after 48 hrs by MTT assay
- Format: cell-based
- CONDITION INFO: Homo sapiens
Only the number, expressed in µM, is required.

[
  {
    "SMILES INPUT": "c1ccc2c(NCCCN3CCOCC3)cc(-c3ccc(CNCCCN4CCOCC4)cc3)nc2c1",
    "RESULT": 56.5
  }
]

Could you now look at the following compound, please?
Item: COc1ccc(-c2cc(NCCCO)c3ccccc3n2)cc1 | System: HUVEC | IC50: 47.6

====

- Test system: HUVEC
- PROTOCOL NOTES: Inhibition of HUVEC cell adhesion to collagen at 15 uM after 1 hr
- Type: functional, cell-based
- CONDITION INFO: Homo sapiens
PROPERTY: IC50

Noted for c1ccc2c(NCCCN3CCOCC3)cc(-c3ccc(CNCCCN4CCOCC4)cc3)nc2c1 : its IC50 reads > 100 µM

====

Below, each entry is listed with its recorded IC50.
- PROTOCOL NOTES: Cytotoxicity against human GLC82 cells after 48 hrs by MTT assay
- Type: functional, cell-based
- CONDITION INFO: GLC82, 48 h
Note: unit µM is implicit; provide only the numeric part.

[
  {
    "SMILES INPUT": "Cc1ccc(-c2cc(NCCCN3CCOCC3)c3ccccc3n2)cc1",
    "PROPERTY": "IC50",
    "RESULT": 49.5
  }
]

For record c1ccc2c(NCCCN3CCOCC3)cc(-c3ccc(CNCCCN4CCOCC4)cc3)nc2c1 the listed IC50 is 34.4

Measured IC50, COc1ccc(Nc2cc(-c3ccc(C)cc3)nc3ccccc23)cc1 : 34.2

For reference, reported IC50 for COc1ccc(-c2cc(NCCO)c3ccccc3n2)cc1 stands at 56.2

Notebook: Cc1ccc(-c2cc(NCCN(C)C)c3ccccc3n2)cc1 , IC50 read as 20.6

====

- PROTOCOL NOTES: Cytotoxicity against human GLC82 cells after 48 hrs by MTT assay
- Format: functional, cell-based
- CONDITION INFO: GLC82, 48 h
PROPERTY: pIC50
Interpret pIC50 as the negative base-10 log of the concentration measured in mol/L.

// below: answered molecules
[
  {
    "SMILES INPUT": "Cc1ccc(-c2cc(NCCCO)c3ccccc3n2)cc1",
    "pIC50": 4.22
  },
  {
    "SMILES INPUT": "Clc1cc(-c2ccc(CNCCCN3CCOCC3)cc2)nc2ccccc12",
    "pIC50": 4.51
  }
]

Now let's try a different one.
Reported pIC50 ( Cc1ccc(-c2cc(NCCO)c3ccccc3n2)cc1 ) = 4.21
